Below, each entry is listed alongside its reported %Inh.
test system: RPS6KA5(Kin.Dom.1-N-terminal); details: concentration: 1 μM, replicates: in singlicate; n = 1;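 note: KINOMEscan kinase panel screen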
// return numeric value only (unit: %, not printed)

C[C@@H]1CC[C@H](C(=O)NC2CCCCC2)CN1c1cc(-c2ccc3c(N)n[nH]c3c2)nc(N)n1: 32
CCc1nc(-c2cccc(C)c2)c(-c2ccncc2)s1: 0
Cc1nn2c(=O)cc(N3CCOCC3)nc2n1Cc1cccc(Cl)c1Cl: 16
Cc1nnc(-c2ccc3ncn(-c4ccc(S(C)=O)cc4)c3c2)o1 (stereo not drawn): 3
Nc1n[nH]c2nnc(-c3ccccc3)c(-c3ccccc3)c12: 12

Input: What %Inh appears in the records for this molecule with RPS6KA5(Kin.Dom.1-N-terminal)? `CCn1c(-c2ccoc2)nc2cnccc21`
Output: 9

###

Listed here: items and their measured %Inh.
tested on: GRK3; construct: gene ADRBK2; details: concentration: 1 μM, replicates: in singlicate; n = 1
Reply with a number, then the unit it belongs to.

The examples below pair each entry with its known result.
CCS(=O)c1ccc(-c2coc3ccc(-c4nnc(C)o4)cc23)cc1 (centres unmarked): 5%
CCc1ccc(-c2ccc3c(c2)-c2nn(C)cc2S(=O)(=O)N3C)cc1: 0%
O=C(Nc1n[nH]c2nc(-c3ccccc3)c(Br)cc12)C1CC1: 0%
CCCNC(=O)Nc1ccc(Oc2ncnc3ccn(C)c23)cc1: 0%
COc1cc2nccc(Nc3cccc(Oc4ccccc4)c3)c2cc1OC.Cl: 16%
Nc1ncnc2c1ncn2-c1ccc(Cl)cc1: 41%
O=c1cc(N2CCOCC2)nc2n(Cc3ccc(F)c(Cl)c3)ccn12: 0%
CCc1nc(-c2cccc(C)c2)c(-c2ccncc2)s1: 0%

Input: Report %Inh for `COc1cc2ncn(-c3cc(OCc4ccncc4Br)c(C(N)=O)s3)c2cc1OC` tested on GRK3.
Output: 0%

###

tested on: DYRK2; conditions: concentration: 1 μM, replicates: in singlicate; n = 1
MEASURED ATTRIBUTE: %Inh (%)
// return numeric value only (unit: %, not printed)

# annotated cases, reported %Inh shown
COc1cc2nccc(Nc3cccc(Oc4ccccc4)c3)c2cc1OC.Cl: 11
Cc1nnc(-c2ccc(C)c(-c3ccc(C(=O)O)cc3)c2)o1: 8

Input: What measured %Inh goes with `Nc1nccc2scc(-c3ccc4c(c3)CCN4C(=O)Cc3ccccc3)c12` ?
Output: 20

Input: Query COc1cc(Nc2nccc(N3CCC(NC(=O)C4COc5ccccc5O4)C3)n2)cc(OC)c1OC (stereo not drawn) next
Output: 19

Input: // repeat for `COc1cccc(C2=C(Nc3cccc(C(=O)O)c3)C(=O)NC2=O)c1` and report
Output: 0

###

test system: CDK11; construct: gene CDK19; details: concentration: 1 μM, replicates: in singlicate; n = 1
Listed here: items and their measured %Inh.
Quote the value and follow it with the unit of measurement.

CCn1c(-c2nonc2N)nc2ccccc21 [SB-693162/GW549034]: 11%
Nc1ncnc2c1ncn2-c1ccc(Cl)cc1 [AH2635]: 0%
Cc1ccccc1COc1cc(-n2cnc3cc(Cl)ccc32)sc1C(N)=O [GW813349]: 23%

Moving on to another compound below.
Input: Quick one: %Inh for `COc1cc(OC)cc(-c2cc3cnc(N)nc3nc2NC(=O)NC(C)(C)C)c1` ?
Output: 0%

###

Recorded %Inh by entry
system: FES; conditions: concentration: 1 μM, replicates: in singlicate; n = 1

Below: 10 molecules and their reported %Inh.
COc1cc2ncn(-c3cc(OCc4ccncc4Br)c(C(N)=O)s3)c2cc1OC [GW854278]: 0%
Nc1ncnc2c1ncn2-c1ccc(Cl)cc1 [AH2635]: 0%
Nc1nc(N)c2nc(-c3ccccc3)[nH]c2n1 [SKF-12778]: 0%
Cc1cccc(-c2cc(-c3c[nH]nc3-c3ccccn3)ccn2)c1 [GW679395]: 0%
COc1ccc(-n2cnc3c(N)ncnc32)cc1 [SKF-97236]: 0%
Cc1cc(Nc2nc(-c3cccc(C)n3)nc3ccccc23)ccn1 [GW872411]: 0%
O=C(NCc1cccs1)c1cc(C(=O)c2c(Cl)cccc2Cl)c[nH]1 [GW823670]: 0%
O=C(Nc1n[nH]c2nc(-c3ccccc3)c(Cl)cc12)C1CC1 [SB-734909]: 0%
OCCCNc1nccc(-c2c(-c3cccc(C(F)(F)F)c3)nn3cc(C(F)(F)F)ccc23)n1 [GW630813]: 0%
Nc1ncnc2c1ncn2-c1cccc(F)c1 [SKF-97560]: 0%

Input: Tell me the measured %Inh of `COc1cc(OC)cc(-c2cc3cnc(N)nc3nc2NC(=O)NC(C)(C)C)c1` , please.
Output: 0%

Input: Same for `CCCNC(=O)Nc1ccc(Oc2ncnc3ccn(C)c23)cc1`
Output: 0%

Input: One more molecule: COc1cccc(C2=C(N(C)c3ccccc3)C(=O)NC2=O)c1 [SB-334865]
Output: 0%

Input: Try this molecule too: O=C1NC(=O)C(c2ccccc2)=C1Nc1cccc(O)c1 [SB-390534]
Output: 0%

Input: What about this molecule? Nc1nccc2scc(-c3ccc4c(c3)CCN4C(=O)Cc3ccccc3)c12 [GSK2576924]
Output: 0%

Input: Same again, this time with C[C@@H]1CC[C@H](C(=O)NC2CCCCC2)CN1c1cc(-c2ccc3c(N)n[nH]c3c2)nc(N)n1 [GSK2291363]
Output: 0%

Input: Ok, now COc1cc2nccc(Nc3ccc(OCc4ccc(NC(C)=O)cc4)cc3)c2cc1OC.Cl [GW440135]
Output: 8%

Input: Same read-out for COc1ccc(CNC(=O)NC2CCN(c3ccnc(Nc4ccc(F)cc4)n3)C2)cc1 (centres unmarked) [GSK1379706] ?
Output: 0%

Input: Repeat for the following molecule: Cl.NS(=O)(=O)c1cccc(Nc2cc(-c3ccc(F)cc3)n[nH]2)c1 [GW824645]
Output: 0%

Input: Moving on to the next molecule: `COC(=O)c1c(-c2ccccc2)c2cc(Br)ccc2c(=O)n1Cc1ccc(NC(=O)CCC(=O)O)cc1`
Output: 9%

Input: One more molecule: Cc1nn2c(=O)cc(N3CCOCC3)nc2n1Cc1cccc(Cl)c1Cl [GSK2342769]
Output: 6%

Input: Similarly, Nc1n[nH]c2ncc(-c3ccccc3)cc12 [SB-517081] ?
Output: 0%

Input: Field entry: `CCc1ccc(-c2ccc3c(c2)-c2nn(C)cc2S(=O)(=O)N3C)cc1`
Output: 0%

Input: Please give the result for `CCC(=O)c1c(-c2ccccc2)c2cc(Cl)ccc2c(=O)n1Cc1ccc(C(=O)O)cc1` too.
Output: 5%

Input: Also need CCn1c(-c2nonc2N)nc2ccccc21 [SB-693162/GW549034] , thanks.
Output: 0%

Input: Moving on to the next molecule: Cl.c1ccc(Cn2cnc3cc(Nc4ncnc5ccccc45)ccc32)cc1 [GW272142]
Output: 0%

Input: Quick one: O=C(NCCNc1ccnc(Nc2ccc(F)cc2)n1)Nc1ccc2c(c1)OCO2 [GSK1379882]
Output: 0%

Input: Now give it for COc1cc2nccc(Nc3cccc(Oc4ccccc4)c3)c2cc1OC.Cl [GW284543] too.
Output: 4%

###

test system: PRKD1; details: concentration: 1 μM, replicates: in singlicate; n = 1
Quick reference for %Inh among some molecules
Value expressed in %; do not type the unit.

These solved cases illustrate the format of a correct answer.
CCC(=O)c1c(-c2ccccc2)c2cc(Cl)ccc2c(=O)n1Cc1cc(C(=O)NC2CC2)n(C)n1: 0
COc1ccc(-c2cc3c(C)nc(N)nc3n([C@H]3CC[C@H](OCCO)CC3)c2=O)cn1: 2
OCCCNc1nccc(-c2c(-c3cccc(C(F)(F)F)c3)nn3cc(C(F)(F)F)ccc23)n1: 22
CCn1c(-c2ccoc2)nc2cnccc21: 2
O=C(Nc1n[nH]c2cc(-c3ccccc3F)ccc12)C1CC1: 0

Input: I am curious: what %Inh value has been reported for `O=C(NCCNc1ccnc(Nc2ccc(F)cc2)n1)Nc1ccc2c(c1)OCO2` ?
Output: 0

###

test system: AAK1; conditions: concentration: 1 μM, replicates: in singlicate; n = 1
MEASURED ATTRIBUTE: %Inh

Cc1ccccc1COc1cc(-n2cnc3cc(Cl)ccc32)sc1C(N)=O: 2%
COc1cc(Nc2ccnc3ccc(C(F)(F)F)cc23)cc(OC)c1OC: 8%
C[C@@H]1CC[C@H](C(=O)NC2CCCCC2)CN1c1cc(-c2ccc3c(N)n[nH]c3c2)nc(N)n1: 55%
CN1C(=O)C(Nc2cc(Cl)c(O)c(Cl)c2)=C(c2ccc(Cl)cc2)C1=O: 0%
CCC(=O)c1c(-c2ccccc2)c2cc(Cl)ccc2c(=O)n1Cc1cc(S(C)(=O)=O)n(CCC(C)(C)O)n1: 25%

Input: Entry `Fc1cccc(CSc2nnc(-c3ccc4c(c3)CCO4)o2)c1` : reported %Inh = ?
Output: 25%

Input: Proceed to `Nc1ncnc2c1ncn2-c1ccc(Cl)cc1`
Output: 0%

Input: Let us now turn to `CCn1c(-c2ccoc2)nc2cnccc21`
Output: 1%
